- System: L929
- assayNotes: Cytotoxicity against mouse L929 cells incubated for 5 days by MTT assay
- Type: toxicity, cell-based
- runParameters: l929, 120 h, time 5 day
outcomeMeasure: Activity

[[record]]
substancesmiles = "C[C@]12CCC[C@@](C)(C(=O)O)[C@@H]1CC=C1CO[C@H](O)[C@@H]12"
target = "L929"
measuredvalue = "Non-Toxic"

[[record]]
substancesmiles = "C[C@]12CCC[C@@](C)(C(=O)O)[C@@H]1CC=C(CO)[C@H]2C=O"
target = "L929"
measuredvalue = "Non-Toxic"

[[record]]
substancesmiles = "COC(=O)[C@H]1C(C(=O)O)=CC[C@@H]2[C@]1(C)CCC[C@@]2(C)C(=O)O"
target = "L929"
measuredvalue = "Non-Toxic"


The values you see were collected from ChEMBL document CHEMBL5370663.
